# EXPERIMENT_NOTES: soluble fraction after stress (log2 fold change); higher = more stays soluble; pooled small domains, quantitative proteomics;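 note: 20 min heating vs room temperature control held 20 min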
# REPORTED_CONDITIONS: stress: 75 degC
Can you tell me soluble fraction (log2) for the items I'm about to list?
Give bare numbers.

HMGEAIPVPDLKHKALTDAEHLVHELGLEIQVVDTGYVKSLPADYILGQSLAPGEKVKSGHIIYVTINSP | -1.23
HMSSIFTRIIAGEIPSYKVAEDENYYAFLDINPLTKGHTLVVPKMEVDYIFDLDDKTLAGMMLFAKKG | -0.129
HMAPSLQISLKQAIITAQQQHPGSKALNADFDGARGTPRYVIETLLPTGELRELTIDAQSGQVMEDHPDR | 0.234
HMSATEPVHFDPNKSPEDMTVEELQAGILAKMANNGPVSDQMKKTVNENIWHDSLVNWLKSF | -0.164
HMSIYDAPIEDLKFSTRIFNSLKRADIHTVADLIAHSRDDLMKVRNLGATSLDELIEKLGTHGLQLADP | -0.412
HMTNLKALRESKGVSQQTVADYLGITRQAYGNYETGKRQADYAALLRLAAFFGVSVDALLQP | -1.18
HMDANAYTYKVSEDTDTRTGEKIFLVKVAEKLSRKEYIVVNNYMKSLGSYYSKFKHAFLFKENPTEKL | -0.55
HMSKTEEIAYTTFVKYLENKDIEEVYLGNNAKIKVILKDGREMITDNPRTADFKKDLLLHDIKVVEKT | -0.0889
HMSKPIYSELLREIRSGDVKELTLIPQRREVLVEYSDGRKATVSILANDQQVLRTAESAGVPLTVK | -0.0278
HMRTPLTGREEQVATLIGRGMTNSEIAESLSVDESTVKTHIGSILRKVHLRDRLQVALWFHGLPIE | -0.67

Consider the following items and state reported soluble fraction (log2) for each.
1. HMMQEIKLEVINNEELRIDNYINLAGIGLSRSYIQKLIKDGVILVNGKEVKSSYKVSLGDIISVQIPDPG
2. HMIHQPNNETTRNLIAGVVKKSLSVWETRVQVDGVDVTTAKDNLAEVHINIRYRLRHNQTPASLGLRLNLG
3. HMLTIEEYLTQLKKLMKDRDAATVRDALSDAEEHLRNAMAGEDPSRLDGIIEEYGSPEEIAAAYKIMEEHT
4. HMSFFNGNQMKILRKKLQLNQEEMGEKLGIKKSYVSQLENNRKEITEEIDQILQELEQEYQDKM

[-0.436, -0.0232, -0.082, -0.642]

* * *

# EXPERIMENT_NOTES: soluble fraction after stress (log2 fold change); higher = more stays soluble; pooled small domains, quantitative proteomics
# REPORTED_CONDITIONS: stress: 75 degC
Label MET when soluble fraction (log2) >= -1; otherwise NOT MET.

HMSIQREIILEVIKNNRTHPTAEEIYILVTKKEPKISRSTVYRNINILVEKGIIEKITIATGPDRYDY | NOT MET
HMERLKKYLDDVRTFLPGTNPKKVDEILREIESHVLERAEREHGEVNDNAVAMSIKEYGSPEEVAARYYEG | MET
HMKGIHDYITKDGLRVVKVHYSADPDKDVTTVEGKKWMAKALLGYPGGLEGAKWRREMEIDFNA | MET
HMDSHSAESVRQRIKDMIAAEASKSILSDDTIVENLKSEGIEIARRTVAKYRESLNIPSSIQRRRIARSEA | MET
HMGQPAVSSRDVAEQFGKEHRNVIQSIKNLIAENSALTFMFIEDTYTAGTGKKYPMYYMNRDGFTLLA | MET

Check if soluble fraction (log2) >= -1 (inclusive). Item: HMTFDWAAYEISEKEIRVMSLVAEGFSNKEIAQELFLSEGTVRNYISNILEKLGLRDRTQLAVHYLKAV NOT MET

# check: soluble fraction (log2) of HMDTFNVIARQEIDGILYEYKIMTVEDYKNQSPENLAVIYENIKAVMEQYDLSEDDADAILVDLLG is greater than or equal to -1 NOT MET

Decide: is the reported value of soluble fraction (log2) for HMATYETEVISGVNLRSAPNTSASVYRLLSKGEDIHVIQKVNDYWLKVQTKDGKIGYISASSKYTNYIA equal to or greater than -1? NOT MET
